test: Aqueous thermodynamic solubility by HPLC
Assay type: physicochemical
settings: thermodynamic from solid; water, HPLC; read-out: Experimental S
Procedure: The aqueous thermodynamic solubility of derivatives 1–7 were measured using a standard HPLC (High Performance Liquid Chromatography) procedure. […] The water solubility (log S) and log P were calculated for comparison. Intrinsic aqueous drug solubility was determined by forming a supersaturated solution of the drug compound in water. […] After 15 min the supernatant was decanted and the total drug content solubilised was analysed using reverse phase HPLC. […]
property: solubility thermodynamic at 15 min (µg/mL)

Some compounds with recorded solubility thermodynamic at 15 min:
Nc1c(C(=O)Nc2ccccc2)sc2nc3c(cc12)C(=O)CCC3 | 1.21
Nc1c(C(=O)Nc2ccccc2)n(CCCc2ccccc2)c2nc3c(cc12)CCCC3 | 0.2
Cc1c(Cl)cccc1NC(=O)c1sc2nc3c(cc2c1N)C(=O)CCC3 | 3.53
Cc1cccc(NC(=O)c2c(N)c3cc4c(nc3n2C)CCCC4)c1C | 0.76

a. Cn1c(C(=O)Nc2ccccc2)c(N)c2cc3c(nc21)CCCCCC3
b. Cn1c(C(=O)Nc2cccc3ccccc23)c(N)c2cc3c(nc21)CCCC3
## Task Of the two listed items, a and b , which carries the larger solubility thermodynamic at 15 min figure? # reply format: chosen label
## Result a
(a: 0.61 µg/mL, b: 0.18 µg/mL)

* * *

Listing: average relative growth, thymidine assay of selected compounds
System: HCT116 (colon) human tumour cell line
test: Thymidine uptake cell proliferation assay
Format: cell-based
settings: 1 μM, untreated cells = 100% growth
The response must be a number in % with no trailing unit.

## Task Recorded average relative growth, thymidine assay of Nc1c(C(=O)Nc2ccccc2)n(CCCN2CCOCC2)c2nc3c(cc12)CCCC3 [Compound 3] , please.
## Result 90.3

## Task Recorded average relative growth, thymidine assay of Cc1cccc(NC(=O)c2c(N)c3cc4c(nc3n2C)CCCC4)c1C [Compound 6] , please.
## Result 104.2

## Task Recorded average relative growth, thymidine assay of Cn1c(C(=O)Nc2ccccc2)c(N)c2cc3c(nc21)CCCCCC3 [Compound 7] , please.
## Result 99.0

## Task Recorded average relative growth, thymidine assay of Cn1c(C(=O)Nc2cccc3ccccc23)c(N)c2cc3c(nc21)CCCC3 [Compound 5] , please.
## Result 102.1

## Task Recorded average relative growth, thymidine assay of Nc1c(C(=O)Nc2ccccc2)n(CCCc2ccccc2)c2nc3c(cc12)CCCC3 [Compound 4] , please.
## Result 103.6

* * *

test: Aqueous thermodynamic solubility by HPLC
Assay type: physicochemical
settings: water, thermodynamic from solid; read-out: water solubility
property: solubility at 15 min

## Task Recorded solubility at 15 min of Nc1c(C(=O)Nc2ccccc2)n(CCCN2CCOCC2)c2nc3c(cc12)CCCC3 , please.
## Result ~1300 µg/mL

* * *

test: Aqueous thermodynamic solubility by HPLC
Type: physicochemical
settings: water, thermodynamic from solid, water, HPLC; read-out: Experimental S, log S (converted)
property: solubility at 15 min (µM)

Some molecules with recorded solubility at 15 min:
Cc1cccc(NC(=O)c2c(N)c3cc4c(nc3n2C)CCCC4)c1C [Compound 6] | 2
Cn1c(C(=O)Nc2ccccc2)c(N)c2cc3c(nc21)CCCCCC3 [Compound 7] | 1.58

I. Cc1c(Cl)cccc1NC(=O)c1sc2nc3c(cc2c1N)C(=O)CCC3 [Compound 2]
II. Nc1c(C(=O)Nc2ccccc2)n(CCCc2ccccc2)c2nc3c(cc12)CCCC3 [Compound 4]
## Task Of the two listed items, I and II , which carries the larger solubility at 15 min figure? # reply format: chosen label
## Result I

1. Cn1c(C(=O)Nc2cccc3ccccc23)c(N)c2cc3c(nc21)CCCC3 [Compound 5]
2. Nc1c(C(=O)Nc2ccccc2)n(CCCN2CCOCC2)c2nc3c(cc12)CCCC3 [Compound 3]
## Task Of the two listed items, 1 and 2 , which carries the larger solubility at 15 min figure? # reply format: chosen label
## Result 2
(2: 3160 µM, 1: 0.501 µM)

Every entry's value here was drawn from paper PMC6017400.
